This collection of values is drawn from PubChem BioAssay AID2060619.

system: 323965-272-R-J2-PDC complex spheroid viability; experiment: Anticancer human tumor 323965-272-R-J2-PDC patient-derived pancreatic carcinoma cell line growth inhibition [CLK]; conditions: second compound 1 µM; first compound 0.0316 µM; stronger effect = lower value
parameter measured: viability, T/C

Before answering, review these 2 worked examples.
molecule	viability, T/C
COc1cccc2c1C(=O)c1c(O)c3c(c(O)c1C2=O)CC(O)(C(=O)CO)CC3OC1CC(N)C(O)C(C)O1 (stereo not drawn) + CN1CCN(c2cc(C(=O)Nc3cc4cc(-c5cnn(C)c5)ccc4cn3)ccn2)CC1	2.27%
CC(Nc1ccc2c(c1)OCCn1cc(N3C(=O)OCC3C(F)F)nc1-2)C(N)=O (stereo not drawn) + CN1CCN(c2cc(C(=O)Nc3cc4cc(-c5cnn(C)c5)ccc4cn3)ccn2)CC1	3.27%

Next up:
Identify the measured viability, T/C of COC1C=CCC(C)C(C)S(=O)(=O)NC(=O)c2ccc3c(c2)N(CC2CCC21)CC1(CCCc2cc(Cl)ccc21)CO3 (stereo not drawn) + CN1CCN(c2cc(C(=O)Nc3cc4cc(-c5cnn(C)c5)ccc4cn3)ccn2)CC1 for 323965-272-R-J2-PDC complex spheroid viability.
3.35%

###

viability, T/C values by entry
system: 323965-272-R-J2-PDC complex spheroid viability; test: Anticancer human tumor 323965-272-R-J2-PDC cell line growth inhibition [CLK]; conditions: second compound 10 µM; first compound 0.00949 µM; stronger effect = lower value;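 note: spheroids exposed to agents for seven days before readout; percent of DMSO vehicle control wells so 100% = untreated growth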
Expressed in %, but write only the number.

compound	viability, T/C [%]
CC(C)CC(NC(=O)C(Cc1ccccc1)NC(=O)c1cnccn1)B(O)O (stereo unspecified) + CNC(=O)c1ccc(Nc2nc(OC3CCCC3)c3c(-c4ccc5nc(C)oc5c4)c[nH]c3n2)c(OC)c1	1.13
C=CC(=O)Nc1cc(Nc2nccc(-c3cn(C)c4ccccc34)n2)c(OC)cc1N(C)CCN(C)C + CN1CCN(c2cc(C(=O)Nc3cc4cc(-c5cnn(C)c5)ccc4cn3)ccn2)CC1	4.92
CC(C)CC(NC(=O)C(Cc1ccccc1)NC(=O)c1cnccn1)B(O)O (stereo unspecified) + CN1CCN(c2cc(C(=O)Nc3cc4cc(-c5cnn(C)c5)ccc4cn3)ccn2)CC1	0.45
NC(=O)C(=Cn1cnc(-c2cc(C(F)(F)F)cc(C(F)(F)F)c2)n1)c1cncnc1 + CNC(=O)c1ccc(Nc2nc(OC3CCCC3)c3c(-c4ccc5nc(C)oc5c4)c[nH]c3n2)c(OC)c1	45.1
C=CC(=O)Nc1cc(Nc2nccc(-c3cn(C)c4ccccc34)n2)c(OC)cc1N(C)CCN(C)C + CNC(=O)c1ccc(Nc2nc(OC3CCCC3)c3c(-c4ccc5nc(C)oc5c4)c[nH]c3n2)c(OC)c1	38.8

Here is another compound to look at.
Looking for the measured viability, T/C of NC(=O)C(=Cn1cnc(-c2cc(C(F)(F)F)cc(C(F)(F)F)c2)n1)c1cncnc1 + CN1CCN(c2cc(C(=O)Nc3cc4cc(-c5cnn(C)c5)ccc4cn3)ccn2)CC1 , can you help?
2.14

###

tested on: 323965-272-R-J2-PDC complex spheroid viability; assay: Anticancer human tumor 323965-272-R-J2-PDC cell line growth inhibition [CLK]; conditions: second compound 3.16 µM; first compound 0.316 µM; active = viability on the fitted dose curve at most 10% of control; inactive = the rest;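 note: spheroids exposed to agents for seven days before readout; percent of DMSO vehicle control wells so 100% = untreated growth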
Could you please pick one outcome from this set? active, inactive

Consider the worked cases shown below.
molecule	label
C=C(F)C(=O)N1CCN(c2nc(OCC3CCCN3C)nc3c2CCN(c2cccc4cccc(Cl)c24)C3)CC1CC#N (configuration not stated) + CN1CCN(c2cc(C(=O)Nc3cc4cc(-c5cnn(C)c5)ccc4cn3)ccn2)CC1	active
COc1c(OCCCN2CCOCC2)ccc2c3n(c(=NC(=O)c4cnc(N)nc4)nc12)CCN3 + CN1CCN(c2cc(C(=O)Nc3cc4cc(-c5cnn(C)c5)ccc4cn3)ccn2)CC1	active
COc1cccc2c1C(=O)c1c(O)c3c(c(O)c1C2=O)CC(O)(C(=O)CO)CC3OC1CC(N)C(O)C(C)O1 (configuration not stated) + CN1CCN(c2cc(C(=O)Nc3cc4cc(-c5cnn(C)c5)ccc4cn3)ccn2)CC1	active
C=C(F)C(=O)N1CCN(c2nc(OCC3CCCN3C)nc3c2CCN(c2cccc4cccc(Cl)c24)C3)CC1CC#N (configuration not stated) + CNC(=O)c1ccc(Nc2nc(OC3CCCC3)c3c(-c4ccc5nc(C)oc5c4)c[nH]c3n2)c(OC)c1	inactive
O=C(c1cc(Cc2n[nH]c(=O)c3ccccc23)ccc1F)N1CCN(C(=O)C2CC2)CC1 + CNC(=O)c1ccc(Nc2nc(OC3CCCC3)c3c(-c4ccc5nc(C)oc5c4)c[nH]c3n2)c(OC)c1	inactive

Test call, this molecule: C=CC(=O)N1CCN(c2nc(=O)n(-c3c(C)ccnc3C(C)C)c3nc(-c4c(O)cccc4F)c(F)cc23)C(C)C1 (configuration not stated) + CNC(=O)c1ccc(Nc2nc(OC3CCCC3)c3c(-c4ccc5nc(C)oc5c4)c[nH]c3n2)c(OC)c1
inactive

What is the recorded call for this molecule in the test? COc1ccc([C@@H](O)c2cc(-c3ncnc4cc(N5CCOCC5)ccc34)c(F)cc2Cl)nn1 + CNC(=O)c1ccc(Nc2nc(OC3CCCC3)c3c(-c4ccc5nc(C)oc5c4)c[nH]c3n2)c(OC)c1
inactive

###

tested on: 323965-272-R-J2-PDC complex spheroid viability; assay: Anticancer human tumor 323965-272-R-J2-PDC cell line growth inhibition [CLK]; conditions: second compound 0.0316 µM; first compound 0.316 µM; stronger effect = lower value;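 note: spheroids exposed to agents for seven days before readout; percent of DMSO vehicle control wells so 100% = untreated growth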
parameter measured: viability, T/C (%)
Give just the number in %; leave the unit off.

compound	value units	result value
C#Cc1c(F)ccc2cc(O)cc(-c3ncc4c(N5CC6CCC(C5)N6)nc(OCC56CCCN5CC(F)C6)nc4c3F)c12 (stereo not given) + CN1CCN(c2cc(C(=O)Nc3cc4cc(-c5cnn(C)c5)ccc4cn3)ccn2)CC1	%	101
COc1c(OCCCN2CCOCC2)ccc2c3n(c(=NC(=O)c4cnc(N)nc4)nc12)CCN3 + CN1CCN(c2cc(C(=O)Nc3cc4cc(-c5cnn(C)c5)ccc4cn3)ccn2)CC1	%	28.8
COc1c(OCCCN2CCOCC2)ccc2c3n(c(=NC(=O)c4cnc(N)nc4)nc12)CCN3 + CNC(=O)c1ccc(Nc2nc(OC3CCCC3)c3c(-c4ccc5nc(C)oc5c4)c[nH]c3n2)c(OC)c1	%	34.1
COc1cccc2c1C(=O)c1c(O)c3c(c(O)c1C2=O)CC(O)(C(=O)CO)CC3OC1CC(N)C(O)C(C)O1 (stereo not given) + CNC(=O)c1ccc(Nc2nc(OC3CCCC3)c3c(-c4ccc5nc(C)oc5c4)c[nH]c3n2)c(OC)c1	%	41.5

Form field: viability, T/C recorded for C=C(F)C(=O)N1CCN(c2nc(OCC3CCCN3C)nc3c2CCN(c2cccc4cccc(Cl)c24)C3)CC1CC#N (stereo not given) + CNC(=O)c1ccc(Nc2nc(OC3CCCC3)c3c(-c4ccc5nc(C)oc5c4)c[nH]c3n2)c(OC)c1 with 323965-272-R-J2-PDC complex spheroid viability (enter value)
52.8

###

Tested on: 323965-272-R-J2-PDC complex spheroid viability
Assay: Anticancer human tumor 323965-272-R-J2-PDC cell line growth inhibition [CLK];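 note: spheroids exposed to agents for seven days before readout; percent of DMSO vehicle control wells so 100% = untreated growth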
Details: second compound 1 µM; first compound 0.1 µM; stronger effect = lower value
Excerpt: A high-throughput screen of multi-cell type tumor spheroids was designed to identify active combinations of […] and targeted small molecules. Complex spheroids include a stromal component modeled by human endothelial cells (HUVEC) and fibroblasts modeled by human mesenchymal stem cells (MSCs). […] Compounds. […] If the clinical Cmax for an agent had not been determined, the highest concentration tested was 10 microM. […]
# class 1 = viability, T/C below 40% (exclusive); class 0 = viability, T/C at/above 40%

Here are 6 compounds together with their reported answers.
compound	label
Nc1ccccc1NC(=O)c1ccc(CNC(=O)OCc2cccnc2)cc1 + CNC(=O)c1ccc(Nc2nc(OC3CCCC3)c3c(-c4ccc5nc(C)oc5c4)c[nH]c3n2)c(OC)c1	class 0
C#Cc1c(F)ccc2cc(O)cc(-c3ncc4c(N5CC6CCC(C5)N6)nc(OCC56CCCN5CC(F)C6)nc4c3F)c12 (stereo not drawn) + CNC(=O)c1ccc(Nc2nc(OC3CCCC3)c3c(-c4ccc5nc(C)oc5c4)c[nH]c3n2)c(OC)c1	class 1
COc1ccc([C@@H](O)c2cc(-c3ncnc4cc(N5CCOCC5)ccc34)c(F)cc2Cl)nn1 + CNC(=O)c1ccc(Nc2nc(OC3CCCC3)c3c(-c4ccc5nc(C)oc5c4)c[nH]c3n2)c(OC)c1	class 0
CC(CO)NC(=O)c1cc(-c2ccc(Cl)cc2)nn(-c2cnn(C)c2)c1=O (stereo not drawn) + CNC(=O)c1ccc(Nc2nc(OC3CCCC3)c3c(-c4ccc5nc(C)oc5c4)c[nH]c3n2)c(OC)c1	class 0
CCN1CCN(Cc2ccc(Nc3ncc(F)c(-c4cc(F)c5nc(C)n(C(C)C)c5c4)n3)nc2)CC1 + CN1CCN(c2cc(C(=O)Nc3cc4cc(-c5cnn(C)c5)ccc4cn3)ccn2)CC1	class 1
C=C(F)C(=O)N1CCN(c2nc(OCC3CCCN3C)nc3c2CCN(c2cccc4cccc(Cl)c24)C3)CC1CC#N (stereo not drawn) + CNC(=O)c1ccc(Nc2nc(OC3CCCC3)c3c(-c4ccc5nc(C)oc5c4)c[nH]c3n2)c(OC)c1	class 1

Consider CCCS(=O)(=O)Nc1ccc(F)c(C(=O)c2c[nH]c3ncc(-c4ccc(Cl)cc4)cc23)c1F + CN1CCN(c2cc(C(=O)Nc3cc4cc(-c5cnn(C)c5)ccc4cn3)ccn2)CC1 . Does its viability, T/C lie strictly below 40%?
class 1
